Target: Focal adhesion kinase 1 (Homo sapiens)
Assay: FAK kinase inhibitors, primary screen, biochemical (AID 727);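 note: 0% = DMSO and 100% = reference compound high control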
Details: biochemical FAK kinase activity assay; stronger effect = higher value;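 tested at 7 µM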
Hit rate of the full screen: of about 97,000 compounds, about 810 (0.84%) were called active. This excerpt belongs to a sample that is enriched for actives.
Collected inhibition values appear next to each entry.
Provide only the numeric value, understood in %.

Observe how each entry below is paired with its result.
[Q] Query (compound): CN(C)/C=C(\C#N)C(=O)c1cccnc1Oc1ccc(F)cc1F ; field requested: inhibition
[A] -5.85

[Q] Query (compound): COc1cccc(/C=N/NC(=O)C(=O)N2CCCC2)c1 ; field requested: inhibition
[A] -2.37

[Q] Query (compound): Cc1cccc(N2CCN(C(=O)c3cnn4c(C(F)F)cc(-c5ccccc5)nc34)CC2)c1C ; field requested: inhibition
[A] 2.11

Continuing:
[Q] Query (compound): CCN(CC)S(=O)(=O)c1ccc(N(C)Cc2ccc(C(F)(F)F)cc2)nc1 ; field requested: inhibition
[A] -0.16

[Q] Query (compound): Cc1ccc(OCC(=O)N/N=C/c2ccncc2)cc1 ; field requested: inhibition
[A] 1.58

[Q] Query (compound): Cc1nnc2sc(-c3ccco3)nn12 ; field requested: inhibition
[A] 0.33

[Q] Query (compound): Cc1cccn2c(=O)c3cc(C(=O)N4COCC4(C)C)n(C)c3nc12 ; field requested: inhibition
[A] 25.2

[Q] Query (compound): Fc1ccc(-c2ccc(-c3nn4c(-c5ccco5)nnc4s3)o2)cc1 ; field requested: inhibition
[A] 19.2

[Q] Query (compound): CNC(=O)CSc1nnnn1-c1ccc(C)cc1C ; field requested: inhibition
[A] 2.36

[Q] Query (compound): Cc1cccc(N(C(=O)Cc2cccs2)C(C(=O)NC2CCCC2)c2ccsc2)c1 (stereo unspecified) ; field requested: inhibition
[A] 2.56

[Q] Query (compound): CC1Cc2ccccc2N1C(=O)c1cc2sccc2n1Cc1ccccc1 (stereo unspecified) ; field requested: inhibition
[A] -0.85

* * *

Molecular target: Focal adhesion kinase 1 (Homo sapiens) (UniProt Q05397)
Sequence (Q05397 whole entry, looked up): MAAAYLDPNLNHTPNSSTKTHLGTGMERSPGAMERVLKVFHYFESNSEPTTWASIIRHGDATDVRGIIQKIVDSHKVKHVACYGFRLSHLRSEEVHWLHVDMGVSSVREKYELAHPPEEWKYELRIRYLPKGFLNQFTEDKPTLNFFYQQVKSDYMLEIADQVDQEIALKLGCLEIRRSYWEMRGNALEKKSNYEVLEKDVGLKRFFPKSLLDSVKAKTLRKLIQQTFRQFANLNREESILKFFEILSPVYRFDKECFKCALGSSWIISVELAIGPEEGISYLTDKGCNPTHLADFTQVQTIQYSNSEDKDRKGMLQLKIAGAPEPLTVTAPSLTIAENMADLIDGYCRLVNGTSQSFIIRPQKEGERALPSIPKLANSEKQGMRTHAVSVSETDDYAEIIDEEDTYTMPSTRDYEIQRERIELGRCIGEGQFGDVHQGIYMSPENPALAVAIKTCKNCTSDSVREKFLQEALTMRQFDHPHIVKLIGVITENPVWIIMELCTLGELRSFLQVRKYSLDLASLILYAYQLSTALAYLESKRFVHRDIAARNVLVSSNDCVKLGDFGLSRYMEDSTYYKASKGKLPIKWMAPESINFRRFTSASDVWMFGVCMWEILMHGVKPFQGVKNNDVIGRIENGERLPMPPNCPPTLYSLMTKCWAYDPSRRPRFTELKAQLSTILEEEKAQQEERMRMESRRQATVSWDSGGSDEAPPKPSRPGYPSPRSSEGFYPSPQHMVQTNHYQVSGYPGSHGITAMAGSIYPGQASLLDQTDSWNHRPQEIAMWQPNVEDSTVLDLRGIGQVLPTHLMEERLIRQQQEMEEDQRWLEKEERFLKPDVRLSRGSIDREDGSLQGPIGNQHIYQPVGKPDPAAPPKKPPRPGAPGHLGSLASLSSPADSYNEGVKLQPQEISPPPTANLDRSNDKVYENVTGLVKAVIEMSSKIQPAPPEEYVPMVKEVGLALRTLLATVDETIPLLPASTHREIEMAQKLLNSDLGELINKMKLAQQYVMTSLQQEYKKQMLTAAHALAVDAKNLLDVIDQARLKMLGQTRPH
Test: FAK kinase inhibitors, primary screen, biochemical (AID 727);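 note: 0% = DMSO and 100% = reference compound high control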
Conditions: biochemical FAK kinase activity assay; stronger effect = higher value;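 tested at 7 µM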
Out of some 97,000 compounds screened, about 810 (0.84%) were called active. The full list was thinned out, with actives kept by preference.
recorded-metric: inhibition (%)
Provide only the numeric value, understood in %.

Observe how each entry below is paired with its result.
[Q] Query (compound): Cc1ccc(-c2nn(C(C)(C)C)c3ncnc(N)c23)cc1 ; field requested: inhibition
[A] 38.8

[Q] Query (compound): O=C(/C=C/c1ccco1)Nc1ccc(Oc2ccccc2)cc1 ; field requested: inhibition
[A] 0.45

[Q] Query (compound): Cc1cccc(NC(=O)Cn2cc(C(=O)c3ccco3)c3ccccc32)c1 ; field requested: inhibition
[A] -4.82

[Q] Query (compound): COc1ccc(C)cc1N(C)C(=O)c1coc(=O)c2ccccc12 ; field requested: inhibition
[A] 1.58

[Q] Query (compound): Cc1nn(C)cc1CNC(=O)Nc1ccc(Cl)cc1 ; field requested: inhibition
[A] 0.55

[Q] Query (compound): COC(=O)/C(=C\Nc1ccccc1)NC(=O)c1ccc(Cl)cc1Cl ; field requested: inhibition
[A] 0.67

[Q] Query (compound): CC1CCN(C(=O)c2cc3nc(C4CC4)cc(C(F)(F)F)n3n2)CC1 ; field requested: inhibition
[A] 0.8

[Q] Query (compound): Cc1ccc(-n2nc3ccc(NC(=O)/C=C/c4ccco4)cc3n2)cc1C ; field requested: inhibition
[A] 19.2

Continuing:
[Q] Query (compound): Cc1nonc1NC(=O)c1ccccc1Br ; field requested: inhibition
[A] -1.88

[Q] Query (compound): CCOC(=O)c1cnc(-c2ccccc2)nc1Oc1ccc(C)cc1 ; field requested: inhibition
[A] 4.12

[Q] Query (compound): O=[N+]([O-])c1ccccc1NCc1ccc(Cl)cc1 ; field requested: inhibition
[A] 1.41

[Q] Query (compound): CCOc1ccc(NC(=O)CC2NCCNC2=O)cc1 (stereo unspecified) ; field requested: inhibition
[A] 0.06

[Q] Query (compound): N=c1c2c3c(sc2nc2n1CCCCC2)CCCC3 ; field requested: inhibition
[A] 0.27

[Q] Query (compound): CCCOc1ccc(NC(=O)C2CCCNC2=O)cc1 (stereo unspecified) ; field requested: inhibition
[A] 40.2

[Q] Query (compound): COc1ccc(C2Nc3ccccc3C(=O)N2Cc2ccccc2)cc1Cn1nnc2ccccc21 (stereo unspecified) ; field requested: inhibition
[A] 1.35
